Just for reference, patent US20230406829A1 is where these values come from.

Target: recombinant human VISTA protein (Homo sapiens)
Sequence (Q9H7M9 with tags, fused parts or gaps limits assumed): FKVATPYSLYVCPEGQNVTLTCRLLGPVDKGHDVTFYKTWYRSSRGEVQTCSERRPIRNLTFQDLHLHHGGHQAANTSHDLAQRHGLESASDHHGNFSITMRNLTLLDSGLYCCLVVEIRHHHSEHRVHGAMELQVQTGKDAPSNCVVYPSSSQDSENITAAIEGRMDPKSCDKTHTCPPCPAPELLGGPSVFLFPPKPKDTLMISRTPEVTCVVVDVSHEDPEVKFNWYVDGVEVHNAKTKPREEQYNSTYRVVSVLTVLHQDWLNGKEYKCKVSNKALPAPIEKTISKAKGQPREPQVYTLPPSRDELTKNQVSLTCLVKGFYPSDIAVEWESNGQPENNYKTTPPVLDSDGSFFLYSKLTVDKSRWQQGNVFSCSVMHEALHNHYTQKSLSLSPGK
Assay: Inhibition of VISTA interaction: rescue of IFN-γ release in human PBMC (ELISA)
Details: 72 h, read-out: IC50 (VISTA interaction inhibitory activity)
Description: • 2. Determination of the inhibition effect of the compounds against VISTA interaction: • (1) Experimental Equipment and Reagents • 1. […] SpectraMax i3X Multifunction microplate reader (Molecular Device) • 3. […] Experimental procedure: • 1.1 Recombinant human VISTA (2.5 μg/ml) and anti-human CD3 antibody (2.5 μg/ml) were added to 96-well plates and stored in 4 C overnight. • 1.2 The next day, the anti-human VISTA antibody was added to the co-incubation for 30 min. […]
READOUT LABEL: IC50

Examples from the recorded data:
>>> observed_result("CC(=O)NCCNCc1cccc(-c2nc3c(C)c(-c4ccccc4)ccc3[nH]2)c1")
"1 to 100 nM"
>>> observed_result("Cc1c(-c2ccccc2)ccc2[nH]c(-c3cccc(COCCN)c3)nc12")
"100 to 1000 nM"
>>> observed_result("Cc1c(-c2ccccc2)ccc2nc(-c3ccc(CNCCO)cc3)[nH]c12")
"100 to 1000 nM"

Given the entry `Cc1c(-c2ccccc2)ccc2[nH]c(-c3ccc(CN[C@H](CO)C(=O)O)cc3)nc12` , report its measured IC50. 100 to 1000 nM

Try this molecule next: `Cc1c(-c2ccccc2)ccc2nc(-c3cccc(CNCCO)c3)cn12` 1 to 100 nM

How about this molecule: `CC(=O)NCCNCc1cccc(-c2nc3cc(OCc4ccccc4)ccc3[nH]2)c1` 100 to 1000 nM
